The reported measurements were obtained from patent US4945090A.

target: benzodiazepine receptors; assay: displacement of 3H-flunitrazepam from benzodiazepine receptors in vitro (rat forebrain membranes); settings: 50% displacement of specific 3H-flunitrazepam binding (1.0 nM, 0° C.), brain membranes of rats, pH 7.1
Just a reminder that ties go to no (0): only IC50 (ng/ml) in vitro strictly below 0.7 ng/mL counts as yes (1).

# input # check: IC50 (ng/ml) in vitro < 0.7 ng/mL for CCc1noc(-c2ncc3[nH]c4cccc(Oc5ccccc5Cl)c4c3c2COC)n1 [5-(2-Cl-Phenoxy), CH2 OCH3, drawing 10]
# output no (0)

# input # check: IC50 (ng/ml) in vitro < 0.7 ng/mL for CCOC(=O)c1ncc2[nH]c3cccc(Oc4ccccc4)c3c2c1C [5-Phenoxy, CH3, COOC2 H5, reference compound]
# output no (0)

# input # check: IC50 (ng/ml) in vitro < 0.7 ng/mL for CCOC(=O)c1ncc2[nH]c3cccc(Oc4ccccc4)c3c2c1COC
# output yes (1)

# input # check: IC50 (ng/ml) in vitro < 0.7 ng/mL for CCc1noc(-c2ncc3[nH]c4ccc(Oc5ccc(C(C)=O)cc5)cc4c3c2COC)n1 [6-(4-acetylphenoxy), CH2 OCH3, drawing 11]
# output yes (1)

# input # check: IC50 (ng/ml) in vitro < 0.7 ng/mL for CCc1noc(-c2ncc3[nH]c4ccc(Oc5ccccc5)cc4c3c2C)n1 [6-Phenoxy, CH3, drawing 14]
# output no (0)

# input # check: IC50 (ng/ml) in vitro < 0.7 ng/mL for COCc1c(C(=O)OC(C)C)ncc2[nH]c3ccc(Oc4cccc(Cl)c4C#N)cc3c12
# output yes (1)

# input # check: IC50 (ng/ml) in vitro < 0.7 ng/mL for COCc1c(C(=O)OC(C)C)ncc2[nH]c3cccc(Oc4ccccc4Cl)c3c12
# output no (0)
